B1: STX11 (parent)
chain: FQRAMHDYNQAEMKQRDNCKIRIQ

variants of: B1; test: protein stability index of a GFP-peptide fusion (GPS, HEK-293T) (PSI 1-6); higher = more stable; conditions: c terminus: a fixed tail appended;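 also: lentivirally expressed fusions sorted by FACS into six bins by GFP to DsRed ratio, PSI derived from sequencing read proportions per bin multiplied by bin number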
// label = met if protein stability index is not less than 3, otherwise not met

Example cases with answers are listed next.
FQRAMHDYNYAEMKQRDNCKIRIQ [Q10Y]; not met
FQRAMHDCNQAEMKQRDNCKIRIQ [Y8C]; not met
FQRAMHDGNQAEMKQRDNCKIRIQ [Y8G]; met
FQRAMHDYNQAEMKQRDNCKIEIQ [R22E]; not met
FQRAMHDYNQAEMGQRDNCKIRIQ [K14G]; met

protein stability index >= 3 for FQRAMHDYIQAEMKQRDNCKIRIQ [N9I] ?
not met

// query: FQRAMHDYNRAEMKQRDNCKIRIQ [Q10R]
not met

// query: FQRAMHDYNQAEMKQRDWCKIRIQ [N18W]
not met

What do you have for FQRAMHDYNQAGMKQRDNCKIRIQ [E12G] ?
not met

Then this variant: FQRAMHDYNNAEMKQRDNCKIRIQ [Q10N]
not met

Also FQRAMHDYNQAEMQQRDNCKIRIQ [K14Q] , if possible.
not met
